Just for reference, patent US20230167182A1 is where these values come from.

Could you please report measured kon for the items listed next?
Biological target: T1, recombinant human IL6R-his (human, UniProt P08887 20-365)
T1 construct: In house made; the entry includes the C-terminal His tag; also called human IL6R-his protein
T1 sequence: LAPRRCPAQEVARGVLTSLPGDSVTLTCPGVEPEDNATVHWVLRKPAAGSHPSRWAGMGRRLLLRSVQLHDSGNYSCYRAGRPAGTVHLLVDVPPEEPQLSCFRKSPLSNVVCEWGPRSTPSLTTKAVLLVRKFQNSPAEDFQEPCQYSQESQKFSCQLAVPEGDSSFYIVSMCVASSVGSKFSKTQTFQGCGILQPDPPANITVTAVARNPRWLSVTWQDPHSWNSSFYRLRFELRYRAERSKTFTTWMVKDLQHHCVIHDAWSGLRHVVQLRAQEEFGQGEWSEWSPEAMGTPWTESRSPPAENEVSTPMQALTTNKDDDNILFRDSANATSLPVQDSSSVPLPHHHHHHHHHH
Experiment: SPR Biacore T200; mAb captured by anti-mouse IgG on CM5, antigen in flow, 1:1 fit

The examples below pair each entry with its known result.
INSERT INTO assay_data (binder, experimental_endpoint, experimental_result) VALUES
  ('mouse anti-IL6R monoclonal antibody 3C2 (antibody, V domains shown, Mouse hybridoma mAb) VH: QVQLQQPGTELVKPGASVKLSCKASGYTFTTYWIHWVKQRPGQGLEWIGEINPSNGRTNYNEHFKSKATLTVDKSSSTASMQLSSLTSADSAVYYCARLNTHYVFDSWGQGTTLTVSS VL: EIVLTQSPTTMAASPGEKITITCSASSSISSNYLHWYQQKPGFSPKLLIYRTSNLASGVPTHFSGSGSGTSYSLTIGTMEAEDVATYYCQQGSGIPFTFGSGTKLEIK', 'kon', '148000 M⁻¹ s⁻¹'),
  ('mouse anti-IL6R monoclonal antibody 1H9 (antibody, V domains shown, Mouse hybridoma mAb) VH: QVQLQQPGAELVKPGASVKLSCKASGYTFTSYWMHWVKLRPGQGLEWIGEINPTNGRTNYYEKFKNRATLTADKSSSTAYMQLSSLTFEDSAVYFCAKFHYSRWYFDVWGTGTTVTVSS VL: DIVMTQSQKFMSTSVGDRVSITCKASQNVGTAVVWYQQKPGQSPKLLINPASNRYTGVPDRFTGSGSGTDFTLTISNMQSEDLADYFCQQYSSYPLTFGAGTKLELK', 'kon', '112000 M⁻¹ s⁻¹'),
  ('mouse anti-IL6R monoclonal antibody 1G1 (antibody, V domains shown, Mouse hybridoma mAb) VH: QVQLQQPGAELVKPGASVKLSCKASGYTFTSYWMHWVKVRPGQGLEWIGEINPTNGRTNYNEDFKSKATLTVESSSSTAYMQFSSLTSEDSAVYYCARLNTHYVFDYWGQGTTLTVSS VL: EIVLTQSPTILAASPGEKITFTCSVSSSISSNYLHWYQQKPGFSPKLLIYRTSNLASGVPARFSGSGSGTSYSLTIGTMEAEDVATYYCQQGSGIPFTFGSGTKLEIK', 'kon', '141000 M⁻¹ s⁻¹'),
  ('mouse anti-IL6R monoclonal antibody 1F7 (antibody, V domains shown, Mouse hybridoma mAb) VH: QVQLQQPGAELVKPGASVKLSCKASDYTFTSYWMHWVKQRPGQGLEWIGEINPSNGRTNYNEKFKNKATLTVDKSSSTAYVQLYSLTSEDSAVYYCARLSIHYVFDYWGQGTTLTVSS VL: ELVLTQSPTTMAASPGEKITFTCSASSSISSNYLHWYQQKPGFSPKLLISGTSNLASGVPPRFSGSGSGTSYSLTIVTMEAEDVATYYCQQGSGIPFTFGSGTKLEIK', 'kon', '139000 M⁻¹ s⁻¹');

Attention now shifts to the item below.
Lookup: May I ask what kon has been recorded for mouse anti-IL6R monoclonal antibody 1A3 (antibody, V domains shown, Mouse hybridoma mAb purified on Protein A) VH: QVQLQQPGAELVKPGASVKLSCKASGYTFTSYWMHWVKQRPAQGLEWIGEINPSNGRTNFNEKFKTKATLTVDKSSNTAYMQLSSLTSEDSAVYSCLRLNTHYVFDYWGQGTTLTVSS VL: EIVLTQSPTTMAASPGEKITITCSASSSISSNYLHWYQQKPGFSPKLLISRTSNLASGVPTRFSGSGSGTSYSLTIGTMEAGDVATYYCQQGSGIPFTFGSGTKLEIK ?
Found: 148000 M⁻¹ s⁻¹
